assaySummary: Lethality in 50% (LD50) of male and female CF-1 strain mice weighing 16-25g, intraperitoneal administration
Type: ADME, organism-based
conditionDetails: both, CF-1, mouse, in vivo, ip
valueType: log10 LD50 (log10 of the value in mg/kg)
Hi team, quick reminder: these entries are log10 of LD50 (mg/kg).

(Q) # get_value(readout='log10 LD50', item= Br.c1ccc(/N=C(\Nc2ccc(OCCN3CCCCC3)cc2)c2ccccc2)cc1 )
(A) 2.15

(Q) Entry CC(C)N(CCOc1ccc(N/C(=N\c2ccccc2)c2ccc(Cl)cc2)cc1)C(C)C.Cl : reported log10 LD50 = ?
(A) 2.60

(Q) // returns reported log10 LD50 for input CCCCN(CCCC)CCCOc1ccc(N/C(=N\c2ccccc2)c2ccccc2)cc1.Cl
(A) 2.17

(Q) Query (compound): Br.c1ccc(/N=C(\Nc2ccc(OCCN3CCCC3)cc2)c2ccccc2)cc1 ; field requested: log10 LD50
(A) 2.07

(Q) For the compound CC(C)N(CCOc1ccc(N/C(=N\c2ccc(Cl)cc2)c2ccccc2)cc1)C(C)C , what log10 LD50 is on record?
(A) 3.00

(Q) What value of log10 LD50 has been reported for the following compound? CC(C)N(CCOc1ccc(N/C(=N\Cc2ccccc2)c2ccccc2)cc1)C(C)C.Cl
(A) 2.27

(Q) Entry COc1ccc(/C(=N\c2ccc(OCCN(C(C)C)C(C)C)cc2)Nc2ccccc2)cc1.Cl : reported log10 LD50 = ?
(A) 2.15

(Q) Suppose we examine the compound Br.COc1ccc(N/C(=N/c2ccc(OCCCN3CCCC3)cc2)c2ccc(C)cc2)cc1 ; what log10 LD50 value has been reported?
(A) 1.63

(Q) # input compound: CN/C(=N/c1ccc(OCCN(C(C)C)C(C)C)cc1)c1ccccc1 ; wanted: its log10 LD50
(A) 2.05

(Q) Sample Br.CN(C)CCOc1ccc(N/C(=N\c2ccccc2)c2ccccc2)cc1 — what was its log10 LD50?
(A) 2.05

(Q) // lookup log10 LD50 for Br.c1ccc(/N=C(\Nc2ccc(OCCCN3CCCC3)cc2)c2ccccc2)cc1
(A) 2.10

(Q) For the compound shown here, C=CC/N=C(\Nc1ccc(OCCN(C(C)C)C(C)C)cc1)c1ccccc1 , give the reported log10 LD50.
(A) 2.10

(Q) Would you mind telling me what log10 LD50 value was observed for Br.CN(CCOc1ccc(N/C(=N\c2ccccc2)c2ccccc2)cc1)Cc1ccccc1 ?
(A) 2.37

(Q) For the compound shown here, CC(C)N(CCOc1ccc(N/C(=N\c2cccc(C(F)(F)F)c2)c2ccccc2)cc1)C(C)C.Cl , give the reported log10 LD50.
(A) 2.60

(Q) Any idea what log10 LD50 was measured for CC(C)N(CCCOc1ccc(N/C(=N\c2ccc(Cl)cc2)c2ccccc2)cc1)C(C)C.Cl ?
(A) 2.27

(Q) Report log10 LD50 for Br.COc1ccc(N/C(=N/c2ccc(OCCN3CCCC3)cc2)c2ccccc2)cc1 please.
(A) 2.17

(Q) Entry under review: Cl.c1ccc(/N=C(\Nc2ccc(SCCN3CCCC3)cc2)c2ccccc2)cc1 . Reported log10 LD50?
(A) 2.30

(Q) Reported log10 LD50 for Br.CC(C)N(CCOc1ccc(N/C(=N\c2ccc(F)cc2)c2ccccc2)cc1)C(C)C : what is it?
(A) 2.16
